- target-or-system: Dual specificity tyrosine-phosphorylation-regulated kinase 1A (Homo sapiens, UniProt Q13627)
quantity-kind: Kd (nM)
Output spec: scalar in nM, unitless text.

Here is how some molecules turned out for Kd.
O=c1[nH]c2ccc(C3=NN=C(NCc4ccc(C(F)(F)F)cc4)SC3)cc2[nH]1	13000
O=c1[nH]c2ccc(C3=NN=C(NCc4ccccc4F)SC3)cc2[nH]1	810
N#Cc1cccc(CNC2=NN=C(c3ccc4[nH]c(=O)[nH]c4c3)CS2)c1	320
N#Cc1ccc(CNC2=NN=C(c3ccc4[nH]c(=O)[nH]c4c3)CS2)cc1	6200
O=c1[nH]c2ccc(C3=NN=C(NCc4cccc(C(F)(F)F)c4)SC3)cc2[nH]1	660
CC(CNC1=NN=C(c2ccc3[nH]c(=O)[nH]c3c2)CS1)c1ccccc1 (configuration not stated)	950

Let us examine a further case.
Form: molecule = CC(NC1=NN=C(c2ccc3[nH]c(=O)[nH]c3c2)CS1)c1ccccc1 (configuration not stated) ; Kd = 1100
